pIC50: −log10 of the molar value.
# pIC50 measurements, system: Tau-tubulin kinase 1 (Homo sapiens, UniProt Q5TCY1)
# Sequence (Q5TCY1 whole entry): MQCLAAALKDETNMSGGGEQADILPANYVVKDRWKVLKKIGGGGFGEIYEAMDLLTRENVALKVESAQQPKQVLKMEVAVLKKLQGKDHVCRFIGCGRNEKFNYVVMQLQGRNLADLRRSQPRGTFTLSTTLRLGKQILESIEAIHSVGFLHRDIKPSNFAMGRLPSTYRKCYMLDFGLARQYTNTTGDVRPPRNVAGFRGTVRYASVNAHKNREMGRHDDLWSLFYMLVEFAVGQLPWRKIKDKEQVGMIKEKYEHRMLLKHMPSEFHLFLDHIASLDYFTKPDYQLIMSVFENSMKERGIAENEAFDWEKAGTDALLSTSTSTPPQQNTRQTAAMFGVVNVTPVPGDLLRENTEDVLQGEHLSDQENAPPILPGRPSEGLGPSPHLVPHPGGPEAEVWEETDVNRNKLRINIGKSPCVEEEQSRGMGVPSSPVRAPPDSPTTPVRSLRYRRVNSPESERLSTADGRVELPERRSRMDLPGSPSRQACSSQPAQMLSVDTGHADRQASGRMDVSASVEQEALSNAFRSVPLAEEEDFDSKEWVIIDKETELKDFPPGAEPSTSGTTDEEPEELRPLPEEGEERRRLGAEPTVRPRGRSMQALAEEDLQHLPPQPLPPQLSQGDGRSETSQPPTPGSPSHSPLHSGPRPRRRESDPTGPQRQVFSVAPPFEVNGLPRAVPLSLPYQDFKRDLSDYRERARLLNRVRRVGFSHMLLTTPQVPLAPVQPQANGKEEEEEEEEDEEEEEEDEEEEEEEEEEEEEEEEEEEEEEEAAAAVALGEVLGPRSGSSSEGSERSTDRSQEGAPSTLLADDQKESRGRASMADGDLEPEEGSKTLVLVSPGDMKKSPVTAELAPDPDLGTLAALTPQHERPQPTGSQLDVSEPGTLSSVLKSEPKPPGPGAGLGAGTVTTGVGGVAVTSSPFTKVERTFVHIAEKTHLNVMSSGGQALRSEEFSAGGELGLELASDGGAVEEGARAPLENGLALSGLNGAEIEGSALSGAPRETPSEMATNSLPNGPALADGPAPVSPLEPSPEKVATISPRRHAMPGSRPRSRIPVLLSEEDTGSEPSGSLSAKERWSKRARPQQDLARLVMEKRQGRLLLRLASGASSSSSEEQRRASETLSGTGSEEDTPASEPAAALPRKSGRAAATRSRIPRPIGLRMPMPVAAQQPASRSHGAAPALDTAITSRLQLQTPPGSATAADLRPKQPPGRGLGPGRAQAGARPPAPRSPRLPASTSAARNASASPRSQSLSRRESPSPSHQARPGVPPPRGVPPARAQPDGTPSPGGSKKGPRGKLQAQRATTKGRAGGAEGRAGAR

{"Smiles Representation": "CC(=O)c1ccc(Nc2ncnc3[nH]ccc23)cc1", "pIC50": 5.37}
{"Smiles Representation": "Oc1ccc(Nc2ncnc3[nH]ccc23)cc1", "pIC50": 5.52}
{"Smiles Representation": "Clc1ccc(Cn2cc(COc3ccc(Nc4ncnc5[nH]ccc45)cc3)nn2)cc1", "pIC50": 6.21}
{"Smiles Representation": "COc1ccc(Nc2ncnc3[nH]ccc23)cc1", "pIC50": 6.28}
{"Smiles Representation": "c1cc(Nc2ncnc3[nH]ccc23)c2c(c1)OCO2", "pIC50": 5.80}
{"Smiles Representation": "Oc1ccc(CCNc2ncnc3[nH]ccc23)cc1", "pIC50": 4.89}
{"Smiles Representation": "Oc1cccc(Nc2ncnc3[nH]ncc23)c1", "pIC50": 5.04}
{"Smiles Representation": "Oc1cccc(Nc2ncnc3[nH]ccc23)c1", "pIC50": 5.21}
{"Smiles Representation": "Clc1ccccc1Cn1cc(COc2ccc(Nc3ncnc4[nH]ccc34)cc2)nn1", "pIC50": 6.44}
{"Smiles Representation": "Clc1ccccc1Nc1ncnc2[nH]ccc12", "pIC50": 4.66}
{"Smiles Representation": "Cc1ccc(Cn2cc(COc3ccc(Nc4ncnc5[nH]ccc45)cc3)nn2)cc1", "pIC50": 6.00}
{"Smiles Representation": "CCOc1ccc(Nc2ncnc3[nH]ccc23)cc1", "pIC50": 5.64}
{"Smiles Representation": "c1nc(Nc2ccc(N3CCOCC3)cc2)c2cc[nH]c2n1", "pIC50": 5.31}
{"Smiles Representation": "FC(F)(F)Oc1ccc(Nc2ncnc3[nH]ccc23)cc1", "pIC50": 6.00}

###

- Experimental Protocol: Cmax in BALB/c mouse brain at 10 mg/kg, po measured for 0.25 to 24 hrs by LC-MS/MS analysis
- Type: ADME, organism-based
- Parameters: dose 10 mg/kg, time upper 24 hrs, time lower 0.25 hrs, route po
Experimental Endpoint: Cmax (ng/mL)

{"Smiles Representation": "Clc1ccc(Oc2ccc(Nc3ncnc4[nH]ccc34)cc2)cc1", "Experimental Endpoint": "Cmax", "Readout Value": 4920}

###

- Experimental Protocol: Tmax in BALB/c mouse brain at 5 mg/kg, ip measured for 0.08 to 24 hrs by LC-MS/MS analysis
- Assay type: ADME, organism-based
- Experimental Setup: time 0.08-24 hrs

{"Smiles Representation": "Clc1ccc(Oc2ccc(Nc3ncnc4[nH]ccc34)cc2)cc1", "Tmax [h]": 1}

###

- Experimental Protocol: Half life in BALB/c mouse brain at 5 mg/kg, ip measured for 0.08 to 24 hrs by LC-MS/MS analysis
- Format: ADME, organism-based
- Experimental Setup: time 0.08-24 hrs

{"Smiles Representation": "Clc1ccc(Oc2ccc(Nc3ncnc4[nH]ccc34)cc2)cc1", "half-life": "3.46 h"}

###

- Experimental Protocol: Selectivity index, ratio of IC50 for recombinant human TTBK1 to IC50 for recombinant human TTBK2

{"Smiles Representation": "Clc1ccccc1Nc1ncnc2[nH]ccc12", "Selectivity Index": 0.51}
{"Smiles Representation": "Nc1nc(Nc2ccc(Oc3cccc(Cl)c3)cc2)c2cc[nH]c2n1", "Selectivity Index": 0.12}
{"Smiles Representation": "FC(F)(F)Oc1ccc(Nc2ncnc3[nH]ccc23)cc1", "Selectivity Index": 0.11}
